Tested on: HCC-38
assayText: relative cell number vs DMSO control (72 h) (% of DMSO); higher = less growth inhibition (more cells)
conditions: sgRNA knockout: sgNT, 10000 nM

compound | measuredTarget | relative cell number
COc1cccc2c1C(=O)c1c(O)c3c(c(O)c1C2=O)C[C@@](O)(C(=O)CO)C[C@@H]3O[C@H]1C[C@H](N)[C@H](O)[C@H](C)O1 [Doxorubicin] | HCC-38 | 10.8
Cc1ccccc1-n1c(Cn2cnc3c(N)ncnc32)nc2cccc(C)c2c1=O | HCC-38 | 95.6
C[C@H]1CCC/C=C/[C@@H]2C[C@H](O)C[C@H]2[C@H](O)/C=C/C(=O)O1 [BrefeldinA] | HCC-38 | 23.6
CCC(C)SSc1ncc[nH]1 (stereo not given) [PX12] | HCC-38 | 84.9
O=C(O)C(Cc1c[nH]c2ccccc12)N1C(=O)c2ccccc2C1=O (stereo not given) [RG108] | HCC-38 | 97.2

###

Measured relative cell number by item
System: SKBR3
assayText: relative cell number vs DMSO control (72 h) (% of DMSO); higher = less growth inhibition (more cells)
conditions: sgRNA knockout: sgNT, 10 nM

compound | measuredTarget | relative cell number
Cc1ncc([N+](=O)[O-])n1CC(O)CCl (stereo not drawn) [Ornidazole] | SKBR3 | 70.1
Cc1[nH]c(/C=C2\C(=O)Nc3ccc(S(=O)(=O)N(C)c4cccc(Cl)c4)cc32)c(C)c1C(=O)N1CCN(C)CC1 | SKBR3 | 90.1
O=C(CCc1ccc(O)cc1)c1c(O)cc(O)cc1O [Phloretin] | SKBR3 | 76.3
CC(C)[C@H](O)C(=O)N[C@@H](C)C(=O)N[C@@H]1C(=O)N(C)CCc2ccccc21 [Semagacestat] | SKBR3 | 112
CC(=O)O[C@H]1C(=O)[C@@]2(C)[C@H]([C@H](OC(=O)c3ccccc3)[C@]3(O)C[C@H](OC(=O)[C@H](O)[C@@H](NC(=O)c4ccccc4)c4ccccc4)C(C)=C1C3(C)C)[C@]1(OC(C)=O)CO[C@@H]1C[C@@H]2O [Paclitaxel] | SKBR3 | 10.2
Cn1c(CCCC(=O)O)nc2cc(N(CCCl)CCCl)ccc21 [Bendamustine] | SKBR3 | 86.7
C=C1C[C@@H]2[C@H](CC[C@]3(C)C(=O)CC[C@@H]23)[C@@]2(C)C=CC(=O)C=C12 [Exemestane] | SKBR3 | 108
COC(=O)/C=C/C(=O)OC [DimethylFumarate] | SKBR3 | 112

###

Test system: BT-20
assayText: relative cell number vs DMSO control (72 h) (% of DMSO); higher = less growth inhibition (more cells)
conditions: sgRNA knockout: sgNT, 100 nM
Listing of recorded relative cell number by entry.

querySmiles | relative cell number
Nc1ccn([C@@H]2O[C@H](CO)[C@@H](O)C2(F)F)c(=O)n1 | 34
C[C@@H](Oc1cc(-n2cnc3ccc(CN4CCN(C)CC4)cc32)sc1C(N)=O)c1ccccc1C(F)(F)F | 26.1
C=CC(=O)Nc1cc2c(Nc3ccc(F)c(Cl)c3)ncnc2cc1OCCCN1CCOCC1 | 59.3
COc1cc(Nc2ncc3c(n2)-c2ccc(Cl)cc2C(c2c(F)cccc2OC)=NC3)ccc1C(=O)O | 66.5
N#Cc1ccc(COC[C@H]2O[C@@H](n3c(NCc4ccc(Cl)c(Cl)c4)nc4c(N)ncnc43)[C@H](O)[C@@H]2O)cc1 | 92.7
CCOC(=O)c1ccc(N2NC(=O)C(=Cc3ccc([N+](=O)[O-])o3)C2=O)cc1 | 101
C[C@]1(c2nc3c(C(N)=O)cccc3[nH]2)CCCN1 | 116
Cn1cnc2c(F)c(Nc3ccc(Br)cc3Cl)c(C(=O)NOCCO)cc21 | 67

###

Reported relative cell number values follow for various compounds
System: HCC-38
assayText: relative cell number vs DMSO control (72 h) (% of DMSO); higher = less growth inhibition (more cells)
conditions: sgRNA knockout: sgNT, 1 nM

compound | measuredTarget | relative cell number
CN1CCN(c2ccc(C(=O)Nc3n[nH]c4ccc(Cc5cc(F)cc(F)c5)cc34)c(NC3CCOCC3)c2)CC1 | HCC-38 | 90.4
COCC[n+]1c2c(n(Cc3cnccn3)c1C)C(=O)c1ccccc1C2=O | HCC-38 | 54.7
CO[C@H]1C[C@@H]2CC[C@@H](C)[C@@](O)(O2)C(=O)C(=O)N2CCCC[C@H]2C(=O)O[C@H]([C@H](C)C[C@@H]2CC[C@@H](OCCO)[C@H](OC)C2)CC(=O)[C@H](C)/C=C(\C)[C@@H](O)[C@@H](OC)C(=O)[C@H](C)C[C@H](C)/C=C/C=C/C=C/1C | HCC-38 | 56.5
CCNC(=O)c1noc(-c2cc(C(C)C)c(O)cc2O)c1-c1ccc(CN2CCOCC2)cc1 | HCC-38 | 112
CC(C)C[C@H](NC(=O)[C@H](CCc1ccccc1)NC(=O)CN1CCOCC1)C(=O)N[C@@H](Cc1ccccc1)C(=O)N[C@@H](CC(C)C)C(=O)[C@@]1(C)CO1 | HCC-38 | 76.3
CC(C)c1cc(-c2n[nH]c(=O)n2-c2ccc3c(ccn3C)c2)c(O)cc1O | HCC-38 | 91
C[C@]12CC[C@H](O)CC1=CC[C@@H]1[C@@H]2CC[C@]2(C)C(c3cccnc3)=CC[C@@H]12 | HCC-38 | 109
CC(C)C[C@H](NC(=O)[C@H](Cc1ccccc1)NC(=O)c1cnccn1)B(O)O | HCC-38 | 91.8
CC(C)[C@]12O[C@H]1[C@@H]1O[C@]13[C@]1(O[C@H]1C[C@H]1C4=C(CC[C@@]13C)C(=O)OC4)[C@@H]2O [Triptolide] | HCC-38 | 97.9
CCc1c2c(nc3ccc(O)cc13)-c1cc3c(c(=O)n1C2)COC(=O)[C@]3(O)CC | HCC-38 | 97.2
N#Cc1ccc(C(c2ccc(C#N)cc2)n2cncn2)cc1 | HCC-38 | 94.5
CC(C)(C#N)c1cc(Cn2cncn2)cc(C(C)(C)C#N)c1 | HCC-38 | 106

###

System: SKBR3
assayText: relative cell number vs DMSO control (72 h) (% of DMSO); higher = less growth inhibition (more cells)
conditions: sgRNA knockout: sgNT, 100 nM
Each record here notes measured relative cell number.
parameter: relative cell number

molecule | recordedValue
Nc1ccn([C@@H]2O[C@H](CO)[C@@H](O)C2(F)F)c(=O)n1 | 7.58
C[C@]12CC[C@H](O)CC1=CC[C@@H]1[C@@H]2CC[C@]2(C)C(c3cccnc3)=CC[C@@H]12 | 114
Cc1cn(-c2cc(NC(=O)c3ccc(C)c(Nc4nccc(-c5cccnc5)n4)c3)cc(C(F)(F)F)c2)cn1 | 88.7
COc1cc2c(cc1-c1c(C)noc1C)ncc1[nH]c(=O)n([C@H](C)c3ccccn3)c12 | 88.5
N#Cc1ccc(C(c2ccc(C#N)cc2)n2cncn2)cc1 | 110
COc1cc(C(=O)N2CCC(N3CCN(C)CC3)CC2)ccc1Nc1ncc2c(n1)N(C)c1ccccc1C(=O)N2C | 70.9
CC(C)[C@H](O)C(=O)N[C@@H](C)C(=O)N[C@@H]1C(=O)N(C)CCc2ccccc21 | 83.1
N#Cc1ccc(COC[C@H]2O[C@@H](n3c(NCc4ccc(Cl)c(Cl)c4)nc4c(N)ncnc43)[C@H](O)[C@@H]2O)cc1 | 139
CCOC(=O)[C@@]1(CCCCCCOc2ccc(Cl)cc2)CO1 | 98.3
CN(C)CC[C@H](CSc1ccccc1)Nc1ccc(S(=O)(=O)NC(=O)c2ccc(N3CCN(Cc4ccccc4-c4ccc(Cl)cc4)CC3)cc2)cc1[N+](=O)[O-] | 98.2
COc1cc2nc(N3CCCN(C)CC3)nc(NC3CCN(Cc4ccccc4)CC3)c2cc1OC | 93.7
C[C@@H](Oc1cc(-n2cnc3ccc(CN4CCN(C)CC4)cc32)sc1C(N)=O)c1ccccc1C(F)(F)F | 13.5
CC(C)(C)OC(=O)CN(Cc1ccc(Cl)cc1)Cc1ccc([N+](=O)[O-])s1 | 89
C=C1C(=O)O[C@H]2[C@H]1CC/C(C)=C/CC[C@@]1(C)O[C@@H]21 [Parthenolide] | 122
O=C(/C=C/c1ccc(O)cc1)c1ccc(O)cc1O | 109
FC(F)c1nc2ccccc2n1-c1nc(N2CCOCC2)nc(N2CCOCC2)n1 | 85
CC[C@H](Nc1ncnc2[nH]cnc12)c1nc2cccc(F)c2c(=O)n1-c1ccccc1 | 91.3
CC[C@@]1(O)C(=O)OCc2c1cc1n(c2=O)Cc2cc3c(CN(C)C)c(O)ccc3nc2-1 | 34.7
O=C1NC(=O)/C(=C/c2ccc3nccc(-c4ccncc4)c3c2)S1 | 123
CS(=O)(=O)c1cccc(CNc2nc(Nc3ccc4c(c3)CCC(=O)N4)ncc2C(F)(F)F)c1 | 110
S=c1nc[nH]c2nc[nH]c12 | 83.1
O=P1(N(CCCl)CCCl)NCCCO1 (centres undefined) [Cyclophosphamide] | 86.2
Cc1sc2c(c1C)C(c1ccc(Cl)cc1)=N[C@@H](CC(=O)OC(C)(C)C)c1nnc(C)n1-2 [(+)-JQ1] | 119
O=C(c1ccc(/C=C/c2n[nH]c3ccccc23)cc1)N1CCNCC1 | 72.7
Cc1cc(N2CCOCC2)cc2[nH]c(-c3c(NC[C@@H](O)c4cccc(Cl)c4)cc[nH]c3=O)nc12 | 73
Cc1onc(-c2ccccc2)c1-c1ccc(S(N)(=O)=O)cc1 | 86.5
Clc1ccc(C2(c3ccc(-c4cn[nH]c4)cc3)CCNCC2)cc1 | 102
CC(=O)Nc1nc(C)c(S(=O)(=O)Nc2ccc(C(O)(C(F)(F)F)C(F)(F)F)cc2)s1 | 87.5
O=P1(NCCCl)OCCCN1CCCl (centres undefined) [Ifosfamide] | 74.6
C[C@@H](Nc1cc(F)cc(F)c1)c1cc(C(=O)N(C)C)cc2c(=O)cc(N3CCOCC3)oc12 | 103
Cn1cnc2c(F)c(Nc3ccc(Br)cc3Cl)c(C(=O)NOCCO)cc21 | 90.1
Cc1nc(Nc2ncc(C(=O)Nc3c(C)cccc3Cl)s2)cc(N2CCN(CCO)CC2)n1 | 96.7
C=C(c1ccc(C(=O)O)cc1)c1cc2c(cc1C)C(C)(C)CCC2(C)C | 72.8
Cc1ccc(Nc2nccc(N(C)c3ccc4c(C)n(C)nc4c3)n2)cc1S(N)(=O)=O | 48.9
